test system: HIV-1 (H9/IIIB strain); experiment: Multiple round HIV-1 infection assay (Viking assay) in MT4-GFP cells; format: cell-based; conditions: Table 1; MT4-GFP cells infected with HIV-1 H9/IIIB, 50% normal human serum; read-out: Viking, IC50 (50% NHS)
Simple rule here: IC50 less than 100 nM is true (1), otherwise false (0).

Exam item: Find out if reported IC50 for CCCOC(=O)C(C)(C)NP(=O)(CO[C@H](C)Cn1cnc2c(N)ncnc21)OCC[C@H](C)C(=O)OC(C)C (single isomer, unassigned) [Example 6B] is less than 100 nM
Marked response: false (0)

Exam item: Determine if CCOC(=O)C1(CCOP(=O)(CO[C@H](C)Cn2cnc3c(N)ncnc32)NC(C)(C)C(=O)OC(C)C)CC1 (single isomer, unassigned) [Example 4B] shows IC50 strictly lower than 100 nM.
Marked response: true (1)

Exam item: Could you please tell me whether IC50 recorded for CC(C)OC(=O)C(C)(C)COP(=O)(CO[C@H](C)Cn1cnc2c(N)ncnc21)NC(C)(C)C(=O)OC(C)C (single isomer, unassigned) [Example 9B] is less than 100 nM?
Marked response: true (1)

Exam item: Decide: IC50 of CC(C)OC(=O)[C@@H](C)CCOP(=O)(CO[C@H](C)Cn1cnc2c(N)ncnc21)NC(C)(C)C(=O)OC(C)C (single isomer, unassigned) [Example 5B] strictly below 100 nM?
Marked response: false (0)

Exam item: Please check: IC50 for CCCOC(=O)C(C)(C)NP(=O)(CO[C@H](C)Cn1cnc2c(N)ncnc21)OCc1cccc(C(=O)OC(C)C)c1 (single isomer, unassigned) [Example 14A] , strictly under 100 nM or not?
Marked response: true (1)

Exam item: Field: below-cutoff. Rule: recorded IC50 strictly less than 100 nM. Subject: CCCOC(=O)C(C)(C)NP(=O)(CO[C@H](C)Cn1cnc2c(N)ncnc21)OCc1cccc(C(=O)OC(C)C)c1 (single isomer, unassigned) [Example 14B]
Marked response: false (0)
